# system_tested: ZNF511 isoform 1 (UniProt Q8NB15)
# Sequence (Q8NB15 whole entry, looked up, canonical isoform): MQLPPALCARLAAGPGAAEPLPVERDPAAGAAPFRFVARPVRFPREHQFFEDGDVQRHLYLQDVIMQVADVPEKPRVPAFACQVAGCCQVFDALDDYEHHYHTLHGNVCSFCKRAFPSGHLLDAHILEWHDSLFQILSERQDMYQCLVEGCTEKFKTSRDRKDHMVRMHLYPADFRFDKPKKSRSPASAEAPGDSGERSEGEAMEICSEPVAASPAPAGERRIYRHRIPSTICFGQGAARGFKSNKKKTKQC
# assay_summary: log2 fold change, soluble protein after heating vs DMSO (PISA); higher = thermal stabilisation; K562 cells, 10 uM, 30 min; active = over 0.2 and 3.5 SD of the protein, either way, in both replicates (recomputed)
Targets with a hit are over-represented here; the source holds about 7,900 in all. About 0.6% of all pairs of compound and target were hits.
The entries below are paired with their reported log2 fold change.
observable: log2 fold change

INSERT INTO measurements (compound, system_tested, val) VALUES
  ('CS(=O)(=O)c1ccc(-c2cnc(N)c(C(=O)Nc3ccccc3)n2)cc1', 'ZNF511 isoform 1 (UniProt Q8NB15)', -0.022),
  ('CCN(CCCOc1ccc2c(Nc3cc(CC(=O)Nc4cccc(F)c4)[nH]n3)ncnc2c1)CCOP(=O)(O)O', 'ZNF511 isoform 1 (UniProt Q8NB15)', -0.041),
  ('FC(F)(F)c1ccc(/C=C/c2nc(COc3ccc(CCCCn4ccnn4)cc3)co2)cc1', 'ZNF511 isoform 1 (UniProt Q8NB15)', -0.06),
  ('Cc1ccc(C(=O)N(CCCN)[C@@H](c2nc3cc(Cl)ccc3c(=O)n2Cc2ccccc2)C(C)C)cc1', 'ZNF511 isoform 1 (UniProt Q8NB15)', 0.296),
  ('O=C1c2ccccc2-c2n[nH]c3cccc1c23', 'ZNF511 isoform 1 (UniProt Q8NB15)', 0.041),
  ('Cn1cc(-c2ccc3nnc(C(F)(F)c4ccc5ncccc5c4)n3n2)cn1', 'ZNF511 isoform 1 (UniProt Q8NB15)', -0.132),
  ('CN(C)CC(=O)Nc1ccc2[nH]c(=O)c3ccccc3c2c1', 'ZNF511 isoform 1 (UniProt Q8NB15)', 0.068),
  ('O=C1NC(=O)C(c2cnc3ccccn23)=C1c1cn2c3c(cc(F)cc13)CN(C(=O)N1CCCCC1)CC2', 'ZNF511 isoform 1 (UniProt Q8NB15)', -0.095),
  ('Oc1cc(-c2nc(-c3ccccc3)[nH]c2-c2ccncc2)ccc1Cl', 'ZNF511 isoform 1 (UniProt Q8NB15)', 0.018),
  ('Cn1cncc1[C@@](N)(c1ccc(Cl)cc1)c1ccc2c(c1)c(-c1cccc(Cl)c1)cc(=O)n2C', 'ZNF511 isoform 1 (UniProt Q8NB15)', 0.062),
  ('CC[C@H](C)[C@H](NC(=O)[C@H]([C@@H](C)CC)N(C)C(C)=O)C(=O)N[C@H](C(=O)N[C@@H](CC(C)C)C(=O)[C@@]1(C)CO1)[C@@H](C)O', 'ZNF511 isoform 1 (UniProt Q8NB15)', -0.045),
  ('CN1CCN(c2nc(C3=C(c4c[nH]c5ccccc45)C(=O)NC3=O)c3ccccc3n2)CC1', 'ZNF511 isoform 1 (UniProt Q8NB15)', 0.001),
  ('NC1(c2ccc(-c3nc4ccn5c(=O)[nH]nc5c4cc3-c3ccccc3)cc2)CCC1', 'ZNF511 isoform 1 (UniProt Q8NB15)', -0.039),
  ('CC[C@@H]1C(=O)N(C)c2cnc(Nc3ccc(C(=O)NC4CCN(C)CC4)cc3OC)nc2N1C1CCCC1', 'ZNF511 isoform 1 (UniProt Q8NB15)', -0.041),
  ('Cc1ccc(NC(=O)c2cccc(N(C)C)c2)cc1NC(=O)c1ccc(O)cc1', 'ZNF511 isoform 1 (UniProt Q8NB15)', 0.012),
  ('CCCc1cc(C)[nH]c(=O)c1CNC(=O)c1cc(-c2ccnc(N3CCN(C)CC3)c2)cc2c1cnn2C(C)C', 'ZNF511 isoform 1 (UniProt Q8NB15)', 0.08),
  ('CO[C@H]1C[C@@H]2CC[C@@H](C)[C@@](O)(O2)C(=O)C(=O)N2CCCC[C@H]2C(=O)O[C@H]([C@H](C)C[C@@H]2CC[C@H](n3cnnn3)[C@H](OC)C2)CC(=O)[C@H](C)/C=C(\C)[C@@H](O)[C@@H](OC)C(=O)[C@H](C)C[C@H](C)/C=C/C=C/C=C/1C', 'ZNF511 isoform 1 (UniProt Q8NB15)', 0.066),
  ('c1cn2cc(-c3ccc4cn[nH]c4c3)nc(Nc3ccc(N4CCOCC4)cc3)c2n1', 'ZNF511 isoform 1 (UniProt Q8NB15)', 0.1),
  ('CC1=C(C(=O)Nc2cc3cn[nH]c3cc2F)C(c2ccc(C(F)(F)F)cc2)CC(=O)N1 (stereo unspecified)', 'ZNF511 isoform 1 (UniProt Q8NB15)', -0.006),
  ('Cc1cc(Nc2cc(N3CCN(C)CC3)nc(Sc3ccc(NC(=O)C4CC4)cc3)n2)n[nH]1', 'ZNF511 isoform 1 (UniProt Q8NB15)', 0.049),
  ('NC(=O)c1cnc(N[C@@H]2CCCC[C@@H]2N)nc1Nc1cccc(-n2nccn2)c1', 'ZNF511 isoform 1 (UniProt Q8NB15)', -0.066),
  ('CNC(=O)c1ccc(Nc2ncc(C(F)(F)F)c(NCc3nccnc3N(C)S(C)(=O)=O)n2)cc1', 'ZNF511 isoform 1 (UniProt Q8NB15)', -0.128),
  ('CC(C)(C)Cn1c(N)nc2ccc(-c3[nH]c(C(C)(C)C)nc3-c3ccc(F)cc3)nc21', 'ZNF511 isoform 1 (UniProt Q8NB15)', 0.074),
  ('C=CC(=O)N1CCC[C@@H](n2nc(-c3ccc(Oc4ccccc4)cc3)c3c(N)ncnc32)C1', 'ZNF511 isoform 1 (UniProt Q8NB15)', 0.047),
  ('COc1cccc2cc(-c3nc([C@H]4CC[C@H](C(=O)O)CC4)n4ncnc(N)c34)[nH]c12', 'ZNF511 isoform 1 (UniProt Q8NB15)', 0.099),
  ('COC(=O)N[C@@H](C)CNc1nccc(-c2cn(C(C)C)nc2-c2cc(Cl)cc(NS(C)(=O)=O)c2F)n1', 'ZNF511 isoform 1 (UniProt Q8NB15)', -0.03);
